test system: L1210; assay: Cytostatic activity against proliferation of L1210/0 cells (murine leukemia L1210 cells); assay type: functional; details: Mus musculus, read-out: ID50 (the source's name)
reportedMetric: IC50 (mg/L)
Could you give me the number in mg/L? Just the number is fine.

molecule	obsValue
O=c1[nH]c(=O)n([C@@H]2O[C@H](CO)[C@@H](O)[C@H]2O)cc1F	0.013
O=c1[nH]c(=O)n([C@@H]2O[C@@H]3COP(=O)(O)O[C@H]3[C@H]2O)cc1Br	315
Oc1ncc(Cl)c(O)n1	455
O=c1[nH]c(=O)n([C@@H]2O[C@@H]3COP(=O)(O)O[C@H]3[C@H]2O)cc1I	315
O=c1[nH]c(=O)n(C2O[C@H](COP(=O)(O)O)[C@@H](O)[C@@H]2O)cc1F (stereo not given in full)	0.024
O=c1[nH]c(=O)n([C@@H]2O[C@H](COP(=O)(O)O)[C@@H](O)[C@H]2O)cc1Br	385
O=c1[nH]c(=O)n([C@@H]2O[C@H](COP(=O)(O)O)[C@@H](O)[C@H]2O)cc1I	703

Here's the next entry for you.
## Input Please report IC50 for the following molecule: O=c1[nH]cc(F)c(=O)[nH]1
## Output 0.208

----------
test system: Human alphaherpesvirus 2; assay: Antiviral activity against Herpes Simplex Virus-2(196); format: functional
reportedMetric: MIC

Some molecules with known MIC results, for comparison:
O=c1[nH]c(=O)n([C@@H]2O[C@@H]3COP(=O)(O)O[C@H]3[C@H]2O)cc1Cl > 400 µg/mL
O=c1[nH]c(=O)n([C@@H]2O[C@@H]3COP(=O)(O)O[C@H]3[C@H]2O)cc1F > 100 µg/mL
O=c1[nH]c(=O)n([C@@H]2O[C@@H]3COP(=O)(O)O[C@H]3[C@H]2O)cc1Br > 200 µg/mL

API: the following record is the query input.
## Input Read off the recorded MIC for O=c1[nH]c(=O)n([C@H]2C[C@H](O)[C@@H](CO)O2)cc1/C=C/Br
## Output 100 µg/mL

----------
Reported MIC values for a set of molecules
tested on: Human alphaherpesvirus 1; assay: Antiviral activity against Herpes Simplex Virus-1 (KOS); type: functional

// worked examples, MIC included
O=c1[nH]c(=O)n([C@@H]2O[C@@H]3COP(=O)(O)O[C@H]3[C@H]2O)cc1Cl > 400 µg/mL
O=c1[nH]c(=O)n([C@H]2C[C@H](O)[C@@H](CO)O2)cc1/C=C/Br 0.02 µg/mL
O=c1[nH]c(=O)n([C@@H]2O[C@@H]3COP(=O)(O)O[C@H]3[C@H]2O)cc1F > 100 µg/mL

# ---- query molecule ----
## Input Supply measured MIC of O=c1[nH]c(=O)n([C@@H]2O[C@@H]3COP(=O)(O)O[C@H]3[C@H]2O)cc1Br in your reply.
## Output > 200 µg/mL

----------
Below is a list of entries, each paired with its recorded IC50 value.
tested on: L1210; assay: Cytostatic activity against proliferation of L1210/0 cells (murine leukemia L1210 cells); type: functional; details: Mus musculus, read-out: ID50 (the source's name)
Value expressed in µg/mL; do not type the unit.

substanceSmiles	IC50 / µg/mL
O=c1[nH]c(=O)n([C@@H]2O[C@H](CO)[C@@H](O)[C@@H]2O)cc1Br	210

Consider the record given below.
## Input Provide one value: measured IC50 of O=c1[nH]c(=O)n([C@@H]2O[C@@H]3COP(=O)(O)O[C@H]3[C@H]2O)cc1F
## Output 0.34
